Assay: xn = mol fraction of the nth substance listed, in the solute-free solvent
Conditions: 293.15 K; x2 = 0.2812
Class satisfied: solubility (g/100 g solution) at least 0.1. Class not satisfied: solubility (g/100 g solution) below 0.1.

# compound, assigned-class
data = [
    ("Nc1cc(-c2ccncc2)c[nH]c1=O + CCO + O", "not satisfied"),
    ("O=C1C=CC(=O)N1c1ccccc1Br + CCO + O", "satisfied"),
    ("O=c1cc(CBr)c2ccccc2[nH]1 + CCO + O", "not satisfied"),
    ("CC(C)C(=O)Nc1ccc([N+](=O)[O-])c(C(F)(F)F)c1 + CCO + O", "satisfied"),
    ("Nc1ncc(Br)nc1Br + CCO + O", "satisfied"),
]

###

The entries below come with measured solubility (g/100 g solution) values attached.
Experiment: xn = mol fraction of the nth substance listed, in the solute-free solvent
Conditions: 283.15 K; x2 = 0.03225

# molecule, solubility (g/100 g solution)
records = [
    ("O=C1C=CC(=O)N1c1ccccc1Br + CC(C)O + O", 0.623),
    ("Nc1ncc(Br)nc1Br + CC(C)O + O", 0.0182),
    ("O=c1cc(CBr)c2ccccc2[nH]1 + CC(C)O + O", 0.0159),
    ("CC(C)C(=O)Nc1ccc([N+](=O)[O-])c(C(F)(F)F)c1 + CC(C)O + O", 0.00535),
    ("O=c1cc(CBr)c2ccccc2[nH]1 + CCCO + O", 0.0232),
]

###

Assay: xn = mol fraction of the nth substance listed, in the solute-free solvent
Conditions: 278.15 K; x2 = 0.4772
quantity-measured: solubility (g/100 g solution)

# molecule, observed-measurement
rows = [
    ("O=C1C=CC(=O)N1c1ccccc1Br + CCO + O", 4.85),
    ("Nc1ncc(Br)nc1Br + CCO + O", 0.274),
    ("Nc1cc(-c2ccncc2)c[nH]c1=O + CCO + O", 0.00811),
    ("O=c1cc(CBr)c2ccccc2[nH]1 + CCO + O", 0.0832),
    ("CC(C)C(=O)Nc1ccc([N+](=O)[O-])c(C(F)(F)F)c1 + CCO + O", 4.83),
]

###

Assay: xn = mol fraction of the nth substance listed, in the solute-free solvent
Settings: 308.15 K; x2 = 0.4772
The following compounds are listed with their measured solubility (g/100 g solution) values.

# compound, solubility (g/100 g solution)
measured = [
    ("Nc1ncc(Br)nc1Br + CCO + O", 0.693),
    ("O=C1C=CC(=O)N1c1ccccc1Br + CCO + O", 13.7),
    ("CC(C)C(=O)Nc1ccc([N+](=O)[O-])c(C(F)(F)F)c1 + CCO + O", 12.8),
    ("O=c1cc(CBr)c2ccccc2[nH]1 + CCO + O", 0.176),
    ("Nc1cc(-c2ccncc2)c[nH]c1=O + CCO + O", 0.0193),
]

###

Experiment: xn = mol fraction of the nth substance listed, in the solute-free solvent
Settings: 308.15 K; x2 = 0.3698
quantity-measured: solubility (g/100 g solution)

# compound, quantity-measured, observed-measurement
measured = [
    ("O=c1cc(CBr)c2ccccc2[nH]1 + CCO + O", "solubility (g/100 g solution)", 0.163),
    ("Nc1ncc(Br)nc1Br + CCO + O", "solubility (g/100 g solution)", 0.589),
    ("O=C1C=CC(=O)N1c1ccccc1Br + CCO + O", "solubility (g/100 g solution)", 12.4),
    ("CC(C)C(=O)Nc1ccc([N+](=O)[O-])c(C(F)(F)F)c1 + CCO + O", "solubility (g/100 g solution)", 6.38),
    ("Nc1cc(-c2ccncc2)c[nH]c1=O + CCO + O", "solubility (g/100 g solution)", 0.0156),
]
